Source listed as ChEMBL document CHEMBL3994677.

SUBJECT_OF_TEST: UniProt:Q9EPK8
Sequence (Q9EPK8 whole entry): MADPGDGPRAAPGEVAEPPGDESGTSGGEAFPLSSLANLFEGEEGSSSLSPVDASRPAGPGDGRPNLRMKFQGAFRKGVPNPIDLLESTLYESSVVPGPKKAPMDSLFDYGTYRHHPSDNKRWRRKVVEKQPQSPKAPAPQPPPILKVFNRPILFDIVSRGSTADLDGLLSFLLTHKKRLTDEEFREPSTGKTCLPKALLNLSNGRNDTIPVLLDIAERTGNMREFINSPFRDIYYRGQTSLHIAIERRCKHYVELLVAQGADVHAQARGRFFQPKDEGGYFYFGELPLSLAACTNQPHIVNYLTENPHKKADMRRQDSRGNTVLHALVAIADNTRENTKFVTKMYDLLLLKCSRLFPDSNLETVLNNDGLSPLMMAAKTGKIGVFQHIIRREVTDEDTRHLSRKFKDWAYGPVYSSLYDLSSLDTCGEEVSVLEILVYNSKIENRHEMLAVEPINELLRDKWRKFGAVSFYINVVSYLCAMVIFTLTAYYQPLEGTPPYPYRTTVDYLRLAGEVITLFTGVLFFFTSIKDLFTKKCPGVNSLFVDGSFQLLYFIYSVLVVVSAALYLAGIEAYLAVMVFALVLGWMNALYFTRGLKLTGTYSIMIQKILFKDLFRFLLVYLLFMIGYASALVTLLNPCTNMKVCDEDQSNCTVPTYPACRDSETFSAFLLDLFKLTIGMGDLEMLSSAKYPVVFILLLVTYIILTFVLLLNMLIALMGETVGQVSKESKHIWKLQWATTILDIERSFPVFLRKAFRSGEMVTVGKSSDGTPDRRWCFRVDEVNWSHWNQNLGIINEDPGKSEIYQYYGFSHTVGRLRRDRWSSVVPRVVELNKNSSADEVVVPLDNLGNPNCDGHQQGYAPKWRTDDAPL
PROTOCOL_NOTES: Antagonist activity at mouse TRPV4 expressed in HEK293 cells assessed as inhibition of 4alpha-PDD-induced intracellular calcium after 10 mins in presence of 45Ca2+ by microbeta liquid scintillation counting method
Type: cell-based
MEASURED_QUANTITY: IC50 (µM)
Only the number, expressed in µM, is required.

Prompt: Name the reported IC50 value associated with the molecule CC(C)NCCN(C(C)C)S(=O)(=O)c1ccc(Cl)cc1Cl
Completion: 5.9

###

SUBJECT_OF_TEST: Transient receptor potential cation channel subfamily A member 1 (Homo sapiens)
Sequence (O75762 whole entry): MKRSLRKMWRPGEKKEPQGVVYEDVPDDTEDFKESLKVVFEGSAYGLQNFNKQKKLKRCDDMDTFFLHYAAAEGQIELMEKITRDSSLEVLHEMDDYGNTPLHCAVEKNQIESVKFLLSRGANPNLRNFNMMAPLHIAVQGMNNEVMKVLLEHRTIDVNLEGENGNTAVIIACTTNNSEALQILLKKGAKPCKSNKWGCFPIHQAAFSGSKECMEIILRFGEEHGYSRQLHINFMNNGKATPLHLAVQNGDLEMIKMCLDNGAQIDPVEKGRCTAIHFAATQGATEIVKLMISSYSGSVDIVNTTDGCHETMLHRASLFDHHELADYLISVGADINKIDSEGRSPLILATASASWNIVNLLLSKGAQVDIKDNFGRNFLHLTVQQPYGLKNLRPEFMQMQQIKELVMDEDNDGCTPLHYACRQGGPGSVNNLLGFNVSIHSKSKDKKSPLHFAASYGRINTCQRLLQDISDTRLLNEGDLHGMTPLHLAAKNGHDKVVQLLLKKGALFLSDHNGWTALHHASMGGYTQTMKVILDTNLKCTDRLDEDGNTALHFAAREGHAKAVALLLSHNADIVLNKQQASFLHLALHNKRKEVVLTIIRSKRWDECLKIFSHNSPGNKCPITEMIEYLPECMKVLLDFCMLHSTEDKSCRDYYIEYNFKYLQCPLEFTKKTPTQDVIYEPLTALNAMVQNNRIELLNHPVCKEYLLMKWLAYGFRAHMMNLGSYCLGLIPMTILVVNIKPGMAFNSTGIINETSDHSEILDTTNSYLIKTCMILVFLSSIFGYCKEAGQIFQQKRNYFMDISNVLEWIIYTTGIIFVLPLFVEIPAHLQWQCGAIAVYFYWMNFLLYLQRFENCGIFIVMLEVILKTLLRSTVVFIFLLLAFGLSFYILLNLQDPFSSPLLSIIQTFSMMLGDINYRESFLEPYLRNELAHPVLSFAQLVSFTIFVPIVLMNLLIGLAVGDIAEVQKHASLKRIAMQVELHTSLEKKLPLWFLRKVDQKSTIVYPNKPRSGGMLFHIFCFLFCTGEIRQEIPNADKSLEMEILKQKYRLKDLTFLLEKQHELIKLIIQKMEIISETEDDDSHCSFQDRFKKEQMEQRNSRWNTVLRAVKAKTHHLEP
MEASURED_QUANTITY: IC50

Prompt: Name the reported IC50 value associated with the compound O=C(NC1(c2ccccc2)CC1)c1c(CN2CCC(N3CCCCC3)CC2)c(-c2cccc(C(F)(F)F)c2)nc2cc(Br)ccc12
Completion: > 25 µM
